tested on: tau (Homo sapiens, UniProt P10636)
Construct: expressed in transfected cells; host or cells: E. coli BL21 (DE3) with pTARA (T7 RNA polymerase under pBAD) and pRKT42
Sequence (P10636 other isoform, or with tags, fused parts or gaps): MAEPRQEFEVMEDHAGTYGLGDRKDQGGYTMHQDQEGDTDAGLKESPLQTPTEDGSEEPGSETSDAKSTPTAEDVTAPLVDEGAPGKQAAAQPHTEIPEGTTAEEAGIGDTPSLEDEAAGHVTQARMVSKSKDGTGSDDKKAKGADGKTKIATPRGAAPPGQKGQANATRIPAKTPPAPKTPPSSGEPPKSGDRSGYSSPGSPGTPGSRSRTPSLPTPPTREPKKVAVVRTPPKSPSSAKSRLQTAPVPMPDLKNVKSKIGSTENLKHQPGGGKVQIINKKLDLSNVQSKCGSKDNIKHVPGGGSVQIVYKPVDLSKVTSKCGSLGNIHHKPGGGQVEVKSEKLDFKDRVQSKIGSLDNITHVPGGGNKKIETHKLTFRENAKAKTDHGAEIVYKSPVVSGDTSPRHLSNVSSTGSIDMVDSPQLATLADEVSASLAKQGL
experiment: In cellulo tau aggregation inhibition, Thioflavin S fluorescence in E. coli overexpressing tau
Type: cell-based, Escherichia coli
run parameters: at 10 µM; mean of three experiments ± SEM
In cellulo tau inhibition % overview
property name: In cellulo tau inhibition % (%)

>>> df
                            molecule_smiles                           tested_on                property_name  test_value
0  c1ccc(CNCCCCCCCN2CCN(c3cccc4c3ccn4Cc3ccccc3)CC2)cc1  tau (Homo sapiens, UniProt P10636)  In cellulo tau inhibition %        55.6
1  Cc1c(OCc2ccccc2)cccc1N1CCN(CCCCNCc2ccccc2)CC1  tau (Homo sapiens, UniProt P10636)  In cellulo tau inhibition %        42.5
2  Cc1c(OCc2ccccc2)cccc1N1CCN(CCCCCCCNc2c3c(nc4ccccc24)CCCC3)CC1  tau (Homo sapiens, UniProt P10636)  In cellulo tau inhibition %        70.3
3  O=S(=O)(c1ccccc1)n1ccc2c(N3CCN(CCNCc4ccccc4)CC3)cccc21  tau (Homo sapiens, UniProt P10636)  In cellulo tau inhibition %        54.6
4  c1ccc(CNCCCCCN2CCN(c3cccc4c3ccn4Cc3ccccc3)CC2)cc1  tau (Homo sapiens, UniProt P10636)  In cellulo tau inhibition %        44.3
5  O=S(=O)(c1ccccc1)n1ccc2c(N3CCN(CCCCNCc4ccccc4)CC3)cccc21  tau (Homo sapiens, UniProt P10636)  In cellulo tau inhibition %        45.1
6  c1ccc(Cn2ccc3c(N4CCN(CCCCCCNc5c6c(nc7ccccc57)CCCC6)CC4)cccc32)cc1  tau (Homo sapiens, UniProt P10636)  In cellulo tau inhibition %        64.0
7  Cc1c(OCc2ccccc2)cccc1N1CCN(CCCCCCCCNc2c3c(nc4ccccc24)CCCC3)CC1  tau (Homo sapiens, UniProt P10636)  In cellulo tau inhibition %        60.2

----------
tested on: human BACE1 (Homo sapiens, UniProt P56817)
Construct: purchased Panvera, Madison, WI (BACE1 FRET Assay Kit); host or cells: baculovirus-expressed
Sequence (P56817 46-501): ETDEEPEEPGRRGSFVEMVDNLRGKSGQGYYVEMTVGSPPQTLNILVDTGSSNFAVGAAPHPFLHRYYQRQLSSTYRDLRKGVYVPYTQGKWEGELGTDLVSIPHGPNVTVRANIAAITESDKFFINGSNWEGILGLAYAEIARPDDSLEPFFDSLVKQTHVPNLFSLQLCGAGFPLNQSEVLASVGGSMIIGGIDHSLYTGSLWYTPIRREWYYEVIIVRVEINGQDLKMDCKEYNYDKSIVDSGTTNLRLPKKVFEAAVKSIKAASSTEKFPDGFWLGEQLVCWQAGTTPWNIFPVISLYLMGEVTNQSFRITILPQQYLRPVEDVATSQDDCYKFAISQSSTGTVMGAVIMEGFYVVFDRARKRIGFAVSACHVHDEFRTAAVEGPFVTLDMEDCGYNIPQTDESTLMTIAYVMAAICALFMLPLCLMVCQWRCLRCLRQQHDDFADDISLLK
experiment: In vitro inhibition of human BACE1, FRET assay
Format: biochemical
run parameters: at 10 µM per table footnote b; mean of three experiments ± SD
The reader will find reported hBACE1 % inhibition values listed item by item below.
property name: hBACE1 % inhibition

In [3]: df
Out[3]:
                            molecule_smiles        property_name    test_value
0  Cc1c(OCc2ccccc2)cccc1N1CCN(CCCNCc2ccccc2)CC1  hBACE1 % inhibition  34.0% ± 11.4
1  Cc1c(OCc2ccccc2)cccc1N1CCN(CCCCCCNc2c3c(nc4ccccc24)CCCC3)CC1  hBACE1 % inhibition  67.4% ± 11.3
2  c1ccc(CNCCCCCN2CCN(c3cccc4c3ccn4Cc3ccccc3)CC2)cc1  hBACE1 % inhibition   63.9% ± 7.7
3  c1ccc(Cn2ccc3c(N4CCN(CCCCCCNc5c6c(nc7ccccc57)CCCC6)CC4)cccc32)cc1  hBACE1 % inhibition   62.1% ± 5.8
4  Cc1c(OCc2ccccc2)cccc1N1CCN(CCCCCNCc2ccccc2)CC1  hBACE1 % inhibition   31.5% ± 1.1
5  Cc1c(OCc2ccccc2)cccc1N1CCN(CCCCCCCCNc2c3c(nc4ccccc24)CCCC3)CC1  hBACE1 % inhibition  33.6% ± 11.1
6  Cc1c(OCc2ccccc2)cccc1N1CCN(CCCCNCc2ccccc2)CC1  hBACE1 % inhibition  42.8% ± 12.7
7  O=S(=O)(c1ccccc1)n1ccc2c(N3CCN(CCNCc4ccccc4)CC3)cccc21  hBACE1 % inhibition   67.4% ± 4.8

Cited source: paper PMC7594877
